B1: tRNA (parent)
chain: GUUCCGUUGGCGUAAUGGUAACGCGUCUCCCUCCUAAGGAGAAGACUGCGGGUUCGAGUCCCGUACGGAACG

Variants of: B1
Experiment: yeast fitness relative to wild type (ratio to wild type); higher = fitter; tRNA-Arg(CCU), competitive growth, 37 C, YPD
This sample holds only a part of the variants without activity.

{"change": "C30A A43U C66U", "reading_qualifier": "=", "yeast fitness": 0.75}
{"change": "G10A G17C C30G C33G A45U G52A A70U", "reading_qualifier": "≤", "yeast fitness": 0.5}
{"change": "C30G C55U", "reading_qualifier": "=", "yeast fitness": 0.622}
{"change": "U19G G44A C46G", "reading_qualifier": "=", "yeast fitness": 0.946}
{"change": "A14C C30A C31U A36U", "reading_qualifier": "≤", "yeast fitness": 0.5}
{"change": "C30U C31G A65C", "reading_qualifier": "=", "yeast fitness": 0.821}
{"change": "C11U G48C", "reading_qualifier": "=", "yeast fitness": 0.882}
{"change": "U26C A42U G56A", "reading_qualifier": "=", "yeast fitness": 0.651}
{"change": "U2G C34U A36C", "reading_qualifier": "≤", "yeast fitness": 0.5}
{"change": "G25C G48A", "reading_qualifier": "=", "yeast fitness": 0.951}
{"change": "A15G U19C G51C C55U", "reading_qualifier": "=", "yeast fitness": 0.582}
{"change": "G10A G25U A36U A43G C60U", "reading_qualifier": "≤", "yeast fitness": 0.5}
{"change": "C24G C27U C33U G50C A69U", "reading_qualifier": "≤", "yeast fitness": 0.5}
{"change": "C31U C62G G68C", "reading_qualifier": "=", "yeast fitness": 0.507}
{"change": "A15C C61U A69U", "reading_qualifier": "=", "yeast fitness": 0.571}
{"change": "C4U G39A A42G G63A G67A", "reading_qualifier": "≤", "yeast fitness": 0.5}
{"change": "U53A C60G G67A A70C", "reading_qualifier": "≤", "yeast fitness": 0.5}
{"change": "U3A C34A C49U C55G", "reading_qualifier": "≤", "yeast fitness": 0.5}
{"change": "U28A C60A", "reading_qualifier": "=", "yeast fitness": 0.535}
{"change": "U7C A14G U19G C29G C49A G52C G63A", "reading_qualifier": "≤", "yeast fitness": 0.5}
{"change": "C55G G63A", "reading_qualifier": "=", "yeast fitness": 0.622}
{"change": "C11U C22U G44C U64G", "reading_qualifier": "=", "yeast fitness": 0.534}
{"change": "C34A A37C C49A", "reading_qualifier": "=", "yeast fitness": 0.522}
{"change": "U2A A40U G48C", "reading_qualifier": "≤", "yeast fitness": 0.5}
{"change": "C22U G48C", "reading_qualifier": "=", "yeast fitness": 0.863}
{"change": "U16A C22G C61U A65G", "reading_qualifier": "≤", "yeast fitness": 0.5}
{"change": "U28A C29U A45C A69C", "reading_qualifier": "=", "yeast fitness": 0.541}
{"change": "A21U U26A C27G C30G A36U G38C C46U C49G A65U", "reading_qualifier": "≤", "yeast fitness": 0.5}
{"change": "C5U A15G G58C G68A", "reading_qualifier": "=", "yeast fitness": 0.51}
{"change": "U7A U8A G41A A70U", "reading_qualifier": "≤", "yeast fitness": 0.5}
{"change": "U28A C29G C31U A69U", "reading_qualifier": "≤", "yeast fitness": 0.5}
{"change": "U7A C55U", "reading_qualifier": "=", "yeast fitness": 0.555}
{"change": "G23C C33A G50C G58C A70G", "reading_qualifier": "=", "yeast fitness": 0.548}
{"change": "U28A A40C C46G", "reading_qualifier": "≤", "yeast fitness": 0.5}
{"change": "C33G A45U C46U G56C", "reading_qualifier": "≤", "yeast fitness": 0.5}
{"change": "G17C A21G C27U C33G A42U", "reading_qualifier": "=", "yeast fitness": 0.621}
{"change": "G6A A57U G68U A70G", "reading_qualifier": "≤", "yeast fitness": 0.5}
{"change": "G41A C62A A70C", "reading_qualifier": "≤", "yeast fitness": 0.5}
{"change": "C24A C62U A70U", "reading_qualifier": "=", "yeast fitness": 0.543}
{"change": "U2G U19G A70C", "reading_qualifier": "=", "yeast fitness": 0.685}
{"change": "C5G A42U G68A", "reading_qualifier": "=", "yeast fitness": 0.582}
{"change": "G18A A20U A36U A65C", "reading_qualifier": "=", "yeast fitness": 0.706}
{"change": "U3A A14U A20C", "reading_qualifier": "≤", "yeast fitness": 0.5}
{"change": "U2C G63A", "reading_qualifier": "=", "yeast fitness": 0.799}
{"change": "U8A C34U C55U C66A", "reading_qualifier": "≤", "yeast fitness": 0.5}
{"change": "C31U U53A", "reading_qualifier": "=", "yeast fitness": 0.656}
{"change": "C4U A42U G67C", "reading_qualifier": "=", "yeast fitness": 0.676}
{"change": "C5U A21C C31G C66U", "reading_qualifier": "=", "yeast fitness": 0.528}
{"change": "G52C A65U G67C", "reading_qualifier": "≤", "yeast fitness": 0.5}
{"change": "C24U C33U C34A", "reading_qualifier": "=", "yeast fitness": 0.555}
{"change": "A15U C27U C66A", "reading_qualifier": "≤", "yeast fitness": 0.5}
{"change": "U8A A20C A43U A69C", "reading_qualifier": "≤", "yeast fitness": 0.5}
{"change": "U2G U28A", "reading_qualifier": "=", "yeast fitness": 0.645}
